Data origin, for the record: PubChem BioAssay (NCI)

GI50 by entry:
system: SK-MEL-5 melanoma; experiment: NCI tumour cell line growth inhibition, 48 h

Reference set, count: 2
Oc1ccc(Br)cc1/C=N/NC(=S)NC12CC3CC(CC(C3)C1)C2
1720 nM
CCN(CC)CCCCCOc1cc(O)c2c(=O)cc(-c3ccccc3)oc2c1
1910 nM

State its GI50 on SK-MEL-5 melanoma: Cc1c2ncccc2nc2[nH]c3ccc(OCCN(C)C)cc3c12
9770 nM

State its GI50 on SK-MEL-5 melanoma: CCCCCCCCCCCCOC1C(C(COC2OC(C(O)CN3CCCCC3)C3OC(C)(C)OC23)NC(=O)Nc2ccccc2)OC2OC(C)(C)OC21 (centres undefined)
8660 nM

State its GI50 on SK-MEL-5 melanoma: O=C(Nc1cccc2cccnc12)c1ccc(N2C(=O)[C@@H]3[C@H](C2=O)[C@@H]2C=C[C@H]3C2)cc1
13400 nM

State its GI50 on SK-MEL-5 melanoma: O=C(NCCN1CCOCC1)Nc1ccc(-c2cc3c(Nc4ccc(Oc5cccc(C(F)(F)F)c5)c(Cl)c4)ncnc3s2)cc1
916 nM

State its GI50 on SK-MEL-5 melanoma: COc1ccc2c(c1OC)-c1c(c3ccc([N+](=O)[O-])cc3c(=O)n1CCCN=[N+]=[N-])C2=O
12200 nM

State its GI50 on SK-MEL-5 melanoma: COc1cccc(Cn2cc3c(c2)-c2oncc2CC3)c1
440 nM

State its GI50 on SK-MEL-5 melanoma: COc1cc(/C=C2\CC3C4CC=C5C[C@@H](N6CCCC6)CC[C@]5(C)C4CC[C@]3(C)[C@H]2OC(C)=O)ccc1OCCN1CCCCC1 (some centres undefined)
1530 nM

====

tested on: HCT-116 colon; assay: NCI tumour cell line growth inhibition, 48 h
measuredMetric: GI50

CC(C)=CCC/C(C)=C/CC/C(=C/COP(=O)(OCc1ccc([N+](=O)[O-])o1)N(C)CCCCCl)CC=C(C)C (stereo not drawn)
2060 nM
CCCCN(CCCC)CC(C)(C)C(O)c1ccc(OC)c2ccccc12 (stereo not drawn)
1080 nM
C[C@H]1CCC/C=C/[C@@H]2C[C@H](O)C[C@H]2[C@H](O)[C@@H](S(=O)CCN)CC(=O)O1 (stereo partly drawn)
56.9 nM
CC1CCC2C(C)C3C(CC4C5CC=C6CC(OC7OC(CO)C(O)C(OC8OC(CO)C(O)C(O)C8O)C7OC7OC(C)C(O)C(O)C7O)CCC6(C)C5CCC43C)N2C1 (stereo not drawn)
> 2.5 µg/mL
CCCCCCCCCCCCOC1C(C(COC2OC(C(O)CN3CCCCC3)C3OC(C)(C)OC23)NC(=O)Nc2ccccc2)OC2OC(C)(C)OC21 (stereo not drawn)
4540 nM

Could you share which GI50 value was measured for O=C(CC1(O)C(=O)Nc2ccc(Br)cc21)c1ccc(C(=O)NCC2CCC3(CC2)OOC2(CCCCC2)OO3)cc1 (stereo not drawn) ?
3090 nM

Could you share which GI50 value was measured for Oc1ccc(/C=N/Nc2nc3ccccc3s2)c(O)c1 ?
2780 nM

Could you share which GI50 value was measured for COc1cc2nc(-c3ccc(-n4cncc4-c4ccc(N)cc4)cc3)sc2c(OC)c1OC ?
3810 nM

====

test system: MCF7 breast; test: NCI tumour cell line growth inhibition, 48 h; in the data active means GI50 below about 0.43 µM; inactive means the rest
Your response should consist of one outcome taken from active, inactive

COc1ccc(NC(=O)c2sc3nc(C)c(C(O)c4ccc(OC)cc4)cc3c2N)cc1 (stereo unspecified)
active

Outcome? COc1cccc2c1cc([N+](=O)[O-])c1c(C(=O)O)cc3c(c12)OCO3
inactive

Outcome? CN(C)CCOC1(Cc2ccc(Cl)cc2Cl)CCC(C(C)(C)C)CC1 (stereo unspecified)
inactive

Outcome? COc1ccc(OC)c(-c2cc(-c3ccccc3)nn2-c2ccc(S(N)(=O)=O)cc2)c1
inactive

Outcome? O=C(NCCN1CCOCC1)Nc1ccc(-c2cc3c(Nc4ccc(Oc5cccc(C(F)(F)F)c5)c(Cl)c4)ncnc3s2)cc1
inactive

Outcome? C=CC[Se]C(=O)Cc1c(C)n(C(=O)c2ccc(Cl)cc2)c2ccc(OC)cc12
inactive

Outcome? CN(C)CCOc1nc2c3cccnc3cc(-c3cccc(Cl)c3)c2c2ncccc12
inactive

Outcome? COc1cccc(Cn2cc3c(c2)-c2oncc2CC3)c1
active

Outcome? C[C@@H]1CC[C@H]2C(COC/C=C/COCC3=C(C(F)(F)F)O[C@@H]4O[C@@]5(C)CC[C@H]6[C@H](C)CC[C@@H]3[C@@]46OO5)=C(C(F)(F)F)O[C@@H]3O[C@@]4(C)CC[C@@H]1[C@]32OO4
active

Outcome? COC(=O)c1c2c(c(C)[n+]([O-])c1C)C(=O)C(NCc1cccc(OC)c1)=CC2=O
inactive

Outcome? CS(=O)c1ccc(-c2nc(-c3ccc(F)cc3)c(-c3ccncc3)[nH]2)cc1 (stereo unspecified)
inactive

Outcome? O=C(CC1(O)C(=O)Nc2ccc(Br)cc21)c1ccc(C(=O)NCC2CCC3(CC2)OOC2(CCCCC2)OO3)cc1 (stereo unspecified)
inactive

Outcome? O=C1C=CN(C2OC(CO)C(O)C2O)C(=O)C1 (stereo unspecified)
inactive

Outcome? O=C1C(Cl)=C(Nc2cccc(C(F)(F)F)c2)C(=O)N1Cc1ccccc1Cl
inactive

Outcome? CCOC(=O)CNC(=O)CCCn1c(=O)c2c3ccccc3n(C)c2n2nnc(-c3ccccc3)c12
inactive

Outcome? CCCCCC(=O)OCC(=O)O[C@@H]1C[C@]2(C(C)C)O[C@@]1(C)[C@@H]1CC[C@@H](C)[C@H]1[C@@H]2OC(=O)/C=C/c1ccccc1
inactive

Outcome? O=C(NCCCNC(=O)OCc1ccc2c(Br)cc(Br)c(O)c2n1)OCc1ccc2c(Br)cc(Br)c(O)c2n1
inactive

Outcome? COc1cc(/C=C2\CC3C4CC=C5C[C@@H](N6CCCC6)CC[C@]5(C)C4CC[C@]3(C)[C@H]2OC(C)=O)ccc1OCCN1CCCCC1 (stereo partly specified)
inactive

====

tested on: HT29 colon; experiment: NCI tumour cell line growth inhibition, 48 h
TGI by entry:
Provide only the numeric value, understood in µM.

CN(C)CCNC(=O)c1cccc2nc3c4ccccc4c4ccccc4c3nc12
3.01

Could you share which TGI value was measured for c1ccc2cc(OCC3CO3)c(OCC3CO3)cc2c1 (centres undefined) ?
20.1

Could you share which TGI value was measured for Oc1ccc(/C=N/Nc2nc3ccccc3s2)c(O)c1 ?
13.6

Could you share which TGI value was measured for O=C(c1cc(Br)ccc1O)c1cc(Br)ccc1O ?
31.7

====

system: SN12C renal; test: NCI tumour cell line growth inhibition, 48 h
TGI by entry:

Reference set, count: 2
Cn1cnc2c(OCC3CCCCC3)nc(N)nc21
> 100 µM
C[C@H]1C(OCCOC2O[C@@H]3O[C@@]4(C)CC[C@H]5[C@H](C)CCC([C@H]2C)[C@@]35O4)O[C@@H]2O[C@@]3(C)CC[C@H]4[C@H](C)CCC1[C@@]24O3 (stereo not given in full)
52.6 µM

Could you share which TGI value was measured for CCOC(=O)N1c2ccccc2S(=O)(=O)c2ccccc21 ?
> 100 µM

Could you share which TGI value was measured for CS(=O)c1ccc(-c2nc(-c3ccc(F)cc3)c(-c3ccncc3)[nH]2)cc1 (stereo not given) ?
> 100 µM

Could you share which TGI value was measured for COc1cc(/C=C2\CC3C4CC=C5C[C@@H](N6CCCC6)CC[C@]5(C)C4CC[C@]3(C)[C@H]2OC(C)=O)ccc1OCCN1CCCCC1 (stereo not given in full) ?
2.56 µM

====

TGI by entry:
tested on: SW-620 colon; test: NCI tumour cell line growth inhibition, 48 h

Reference set, count: 5
Fc1ccc(F)c(C2SCc3nc4ccccc4n32)c1 (stereo unspecified)
> 100 µM
NC(=O)C12C3C4C1C1C2C3C41C(N)=O (stereo unspecified)
> 100 µM
COc1ccc2[nH]c(-c3cccc(N(C)C)c3)cc(=O)c2c1
> 100 µM
COc1ccc(/C(Cl)=C(\C=O)c2ccc(OC)c(OC)c2)cc1OC
> 100 µM
CC1CCCN(CC(O)CN2CCCc3ccccc32)C1 (stereo unspecified)
> 100 µM

Turning now to a further molecule:
Could you share which TGI value was measured for Cc1c2ccnc(-c3ccccc3)c2cc2c1[nH]c1ccccc12 ?
46.9 µM

====

GI50 by entry:
system: IGROV1 ovarian; experiment: NCI tumour cell line growth inhibition, 48 h

Reference set, count: 3
COc1cc2nc(-c3ccc(-n4cncc4-c4ccc(N)cc4)cc3)sc2c(OC)c1OC
2630 nM
BrC(Br)(Br)c1cnc2ccccc2n1
2200 nM
CCOC(=O)N1C/C(=C/c2ccc(OC)cc2)C(=O)/C(=C/c2ccc(OC)cc2)C1
2440 nM

Could you share which GI50 value was measured for CC(F)(F)c1cc(F)ccc1-c1sc2cc(O)ccc2c1Oc1ccc(/C=C/C(=O)O)cc1 ?
11600 nM
